- test.system: AKT Kinase-NanoLuc fusion in HEK-293 cells (Homo sapiens, UniProt P31749)
- Construct: host or cells: HEK-293
- Sequence (P31749 whole entry, the tested form may be a part): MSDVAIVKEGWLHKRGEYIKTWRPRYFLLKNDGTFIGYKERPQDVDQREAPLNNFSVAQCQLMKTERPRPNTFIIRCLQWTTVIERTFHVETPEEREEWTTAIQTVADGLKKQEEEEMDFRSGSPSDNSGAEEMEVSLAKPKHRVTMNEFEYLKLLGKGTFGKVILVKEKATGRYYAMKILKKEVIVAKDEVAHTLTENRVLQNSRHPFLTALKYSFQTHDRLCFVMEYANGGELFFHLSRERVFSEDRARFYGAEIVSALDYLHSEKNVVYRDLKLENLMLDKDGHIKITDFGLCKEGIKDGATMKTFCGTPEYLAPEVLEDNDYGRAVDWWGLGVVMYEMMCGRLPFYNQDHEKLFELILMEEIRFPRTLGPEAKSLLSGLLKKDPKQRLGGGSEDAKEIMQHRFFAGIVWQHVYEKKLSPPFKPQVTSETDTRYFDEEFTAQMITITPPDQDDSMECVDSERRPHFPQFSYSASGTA
- measurement.notes: NanoBRET target engagement assay in transfected HEK-293 cells, AKT
- Format: cell-based
- condition.notes: Table 28, NanoBRET, HEK-293 cells; read-out: AKT1 (Cellular) IC50
result.type: IC50 (µM)

Record excerpt, results attached:
Cc1cc(-c2ccnc3[nH]cc(F)c23)cc(F)c1[C@@]1(O)[C@H](C)CN(C(=O)CN)C[C@@H]1C; 3.44
C[C@@H]1CN(C)C[C@H](C)[C@@]1(O)c1ccc(-c2ccnc3[nH]cc(F)c23)nc1; 8.64
C[C@@H]1CN(C2CCS(=O)(=O)CC2)C[C@H](C)C1(O)c1c(F)cc(-c2ccnc3[nH]cc(F)c23)cc1F (some centres unmarked); 39.4

P: Cc1cc(-c2ccnc3[nH]cc(F)c23)ccc1CN
Q: NCc1ccc(-c2ccnc3[nH]cc(-c4ccccc4)c23)cc1
Compare IC50: is it lower for P or for Q ? When you have decided, please share the label of that item.
Q

====

- test.system: LATS2 (Homo sapiens, UniProt Q9NRM7)
- Sequence (Q9NRM7 whole entry): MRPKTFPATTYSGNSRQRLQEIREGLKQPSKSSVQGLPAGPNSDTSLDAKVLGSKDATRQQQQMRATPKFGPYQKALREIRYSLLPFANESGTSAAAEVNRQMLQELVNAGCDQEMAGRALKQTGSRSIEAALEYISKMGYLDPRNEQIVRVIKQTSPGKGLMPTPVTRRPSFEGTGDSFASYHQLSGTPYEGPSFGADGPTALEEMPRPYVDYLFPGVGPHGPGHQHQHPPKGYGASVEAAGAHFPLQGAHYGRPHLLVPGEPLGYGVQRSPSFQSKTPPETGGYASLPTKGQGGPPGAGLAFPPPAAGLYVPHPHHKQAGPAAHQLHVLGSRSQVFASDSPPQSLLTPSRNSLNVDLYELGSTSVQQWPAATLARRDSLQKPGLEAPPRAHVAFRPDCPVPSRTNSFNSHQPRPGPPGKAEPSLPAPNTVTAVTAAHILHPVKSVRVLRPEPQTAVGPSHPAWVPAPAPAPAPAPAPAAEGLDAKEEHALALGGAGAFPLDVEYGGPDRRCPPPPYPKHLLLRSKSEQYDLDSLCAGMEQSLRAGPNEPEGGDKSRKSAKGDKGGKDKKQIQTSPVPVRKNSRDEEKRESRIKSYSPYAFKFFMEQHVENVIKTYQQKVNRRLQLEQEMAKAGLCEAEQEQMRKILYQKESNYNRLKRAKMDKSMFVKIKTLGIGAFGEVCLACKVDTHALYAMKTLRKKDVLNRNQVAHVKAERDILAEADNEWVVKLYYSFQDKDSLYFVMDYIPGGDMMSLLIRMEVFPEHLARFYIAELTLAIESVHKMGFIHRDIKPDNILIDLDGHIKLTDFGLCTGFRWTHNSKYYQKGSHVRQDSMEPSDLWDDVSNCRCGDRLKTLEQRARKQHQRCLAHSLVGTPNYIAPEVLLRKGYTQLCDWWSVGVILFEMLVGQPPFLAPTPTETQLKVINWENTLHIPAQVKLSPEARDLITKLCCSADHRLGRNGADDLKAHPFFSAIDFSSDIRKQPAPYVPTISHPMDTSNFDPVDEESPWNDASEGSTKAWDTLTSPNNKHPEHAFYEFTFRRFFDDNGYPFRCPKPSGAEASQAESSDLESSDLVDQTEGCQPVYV
- measurement.notes: RBC HotSpot kinase assay (33P-ATP, P81 filter-binding), LATS2
- Assay type: biochemical
- condition.notes: Table 28, biochemical kinase assay; read-out: LATS2 IC50
result.type: IC50 (nM)

Cc1cc(-c2ccnc3[nH]cc(Cl)c23)cc(F)c1[C@@]1(O)[C@H](C)CNC[C@@H]1C; 3.3
CN(C)CCS(=O)(=O)N1CCC(c2ccc(-c3ccnc4[nH]cc(F)c34)cc2Cl)CC1; 139
CNCC(=O)N1C[C@@H](C)[C@](O)(c2c(C)cc(-c3ccnc4[nH]cc(F)c34)cc2F)[C@@H](C)C1; 2.8
Cc1nnc(C2(c3ccc(-c4ccnc5[nH]cc(F)c45)cc3)CCNCC2)o1; 17
COc1cc(-c2ccnc3[nH]ccc23)ccc1CN; 24

A: Fc1c[nH]c2nccc(-c3ccc(C4CCNCC4)c(Cl)c3)c12
B: OC1(c2ccc(-c3ccnc4[nH]cc(F)c34)cc2Cl)CCNCC1
Which has the higher IC50, A or B ? When you have decided, please share the label of that item.
B

1: Cc1cc(-c2ccnc3[nH]ccc23)cnc1CN
2: O=S1(=O)CCC(N2CC3(C2)CC(O)(c2c(F)cc(-c4ccnc5[nH]cc(F)c45)cc2F)C3)CC1
Compare IC50: is it lower for 1 or for 2 ? When you have decided, please share the label of that item.
1

a: c1cc(-c2ccc(C3CCNCC3)nc2)c2cc[nH]c2n1
b: C[C@@H]1CN(C)C[C@H](C)[C@@]1(O)c1ccc(-c2ccnc3[nH]ccc23)nc1
c: Cc1nc(-c2ccnc3[nH]cc(F)c23)ccc1C1(O)[C@H](C)CN(C(=O)CN)C[C@@H]1C (stereo partly shown)
Provide the items ranked by increasing IC50. Submit the labels in the order that the ranking request calls for.
c, a, b
(c: 18.9 nM, a: 71 nM, b: 293 nM)

a: c1ccc(CNCc2ccc(-c3ccnc4[nH]ccc34)cc2)cc1
b: C[C@@H]1CN(C)C[C@H](C)[C@@]1(O)c1cnc(-c2ccnc3[nH]cc(F)c23)cc1Cl
c: Cc1cccc(-c2c[nH]c3nccc(-c4ccc(CN)cc4)c23)c1
Provide the items ranked by increasing IC50. Submit the labels in the order that the ranking request calls for.
b, c, a
